# Assay System: TARBP2; also: reference of the scale not given here
# Test Summary: pooled miR-30 sensor sort-seq; sequence = guide strand
# Test Context: shRNA
sensor-assay potency score (higher = more potent) listing for selected sequences.
Endpoint Label: sensor-assay potency score (higher = more potent)

{"Residue String": "TTTGAGAAGGTCGTACACAGGC", "Assay System": "TARBP2", "Measured Result": -0.0476}
{"Residue String": "TGCTGCAGCAGTAAAAACCGGA", "Assay System": "TARBP2", "Measured Result": -0.386}
{"Residue String": "TTTCGAAGACCATCCAGGCGGG", "Assay System": "TARBP2", "Measured Result": -0.916}
{"Residue String": "TCGTACACAGGCGTCTTCCCTA", "Assay System": "TARBP2", "Measured Result": -0.68}
{"Residue String": "TTGCAGAGCCATGACACACAGT", "Assay System": "TARBP2", "Measured Result": -0.909}
{"Residue String": "TTTCGTAGAGAATCCCAGGTGC", "Assay System": "TARBP2", "Measured Result": 0.652}
{"Residue String": "TAGGACTACAGATGGAACTGGG", "Assay System": "TARBP2", "Measured Result": 0.0896}
{"Residue String": "TTTCTGCACCACCAGCTCCTGC", "Assay System": "TARBP2", "Measured Result": -1.56}
{"Residue String": "TTCTCTCCTACTGAATTTCGTA", "Assay System": "TARBP2", "Measured Result": -0.854}
{"Residue String": "TATTCTGGTCCCATACTCCTGC", "Assay System": "TARBP2", "Measured Result": 0.18}
